- test_description: activity coefficient (dimensionless); of the first substance listed, at infinite dilution; xn = mol fraction of the nth substance listed
- condition_set: 299.99 K; Liquid; Gas Stripping Method; x1 = 0
We use 4 as the dividing line for activity coefficient: on or above the line is Y, below is N.

Some solved entries appear below for comparison.
- molecule: "C=CCC [1-butene] + Cc1ccccc1O"
  category_label: "Y"
- molecule: "CCC [propane] + Cc1ccccc1O"
  category_label: "Y"
- molecule: "COC [dimethyl ether] + Cc1ccccc1O"
  category_label: "N"

Now look at this one.
Item CC(C)C [2-methylpropane] + Cc1ccccc1O with activity coefficient of 4 or above?
Y

----------
- test_description: activity coefficient (dimensionless); of the first substance listed, at infinite dilution; xn = mol fraction of the nth substance listed
- condition_set: 289.98 K; Liquid; Gas Stripping Method; x1 = 0
readout_kind: activity coefficient
Answers are plain numbers.

A selection of reference data follows.
- compound: "C/C=C/C [(E)-2-butene] + Cc1cccc(O)c1"
  observed: 4.68
- compound: "CC(C)C [2-methylpropane] + Cc1cccc(O)c1"
  observed: 8.35
- compound: "CCC [propane] + Cc1cccc(O)c1"
  observed: 6.31
- compound: "CCCC [butane] + Cc1cccc(O)c1"
  observed: 7.22

Provide the reported activity coefficient of each entry below, same order.
1. CC(F)F [1,1-difluoroethane] + Cc1cccc(O)c1
2. C=CC=C [1,3-butadiene] + Cc1cccc(O)c1

1. 4.79
2. 3.32

----------
- test_description: activity coefficient (dimensionless); of the first substance listed, at infinite dilution; xn = mol fraction of the nth substance listed
- condition_set: 329.99 K; Liquid; Gas Stripping Method; x1 = 0
readout_kind: activity coefficient
Answers are plain numbers.

Provide the reported activity coefficient of each entry below, same order.
1. CCCC [butane] + Cc1cccc(O)c1
2. C=C(C)C [2-methylpropene] + Cc1ccc(O)cc1
3. C=CC=C [1,3-butadiene] + Cc1ccccc1O
4. CCC [propane] + Cc1ccccc1O
5. CCCl [chloroethane] + Cc1ccc(O)cc1
6. CC(F)F [1,1-difluoroethane] + Cc1cccc(O)c1

[6.33, 4.2, 2.63, 5.58, 1.98, 3.98]

----------
Exercise: state measured activity coefficient for each of the compounds provided.
- test_description: activity coefficient (dimensionless); of the first substance listed, at infinite dilution; xn = mol fraction of the nth substance listed
- condition_set: 289.98 K; Liquid; Gas Stripping Method; x1 = 0
Give bare numbers.

A selection of reference data follows.
- compound: "C=CCC [1-butene] + Cc1cccc(O)c1"
  activity coefficient: 4.86
- compound: "C=CC [propene] + Cc1cccc(O)c1"
  activity coefficient: 4.1

Provide the reported activity coefficient of each entry below, same order.
1. C=C(C)C [2-methylpropene] + Cc1cccc(O)c1
2. C/C=C\C [(Z)-2-butene] + Cc1cccc(O)c1

1: 4.66; 2: 4.29

----------
Exercise: state measured activity coefficient for each of the compounds provided.
- test_description: activity coefficient (dimensionless); of the first substance listed, at infinite dilution; xn = mol fraction of the nth substance listed
- condition_set: 309.99 K; Liquid; Gas Stripping Method; x1 = 0

- compound: "C/C=C\\C [(Z)-2-butene] + Cc1cccc(O)c1"
  readout_kind: "activity coefficient"
  observed: 4.09
- compound: "CC(C)C [2-methylpropane] + Cc1ccccc1O"
  readout_kind: "activity coefficient"
  observed: 7.57
- compound: "C/C=C/C [(E)-2-butene] + Cc1cccc(O)c1"
  readout_kind: "activity coefficient"
  observed: 4.49
- compound: "CC(F)F [1,1-difluoroethane] + Cc1ccc(O)cc1"
  readout_kind: "activity coefficient"
  observed: 4.46
- compound: "C=CC [propene] + Cc1ccccc1O"
  readout_kind: "activity coefficient"
  observed: 3.71

Provide the reported activity coefficient of each entry below, same order.
1. CCC [propane] + Cc1cccc(O)c1
2. CCCC [butane] + Cc1cccc(O)c1
3. C=C(C)C [2-methylpropene] + Cc1ccc(O)cc1
4. C/C=C\C [(Z)-2-butene] + Cc1ccccc1O
5. C/C=C/C [(E)-2-butene] + Cc1ccccc1O
6. CC(C)C [2-methylpropane] + Cc1ccc(O)cc1

[6.24, 6.88, 4.44, 3.69, 4.13, 7.93]

Provide the reported activity coefficient of each entry below, same order.
1. CC(F)F [1,1-difluoroethane] + Cc1cccc(O)c1
2. C/C=C/C [(E)-2-butene] + Cc1ccc(O)cc1
3. C=CC=C [1,3-butadiene] + Cc1cccc(O)c1
4. CC(F)F [1,1-difluoroethane] + Cc1ccccc1O
5. C=CCC [1-butene] + Cc1ccc(O)cc1
6. C=CC=C [1,3-butadiene] + Cc1ccc(O)cc1

[4.37, 4.48, 3.22, 3.84, 4.66, 3.26]
